- TARGET: Dual specificity tyrosine-phosphorylation-regulated kinase 1A (Rattus norvegicus, UniProt Q63470)
- METHOD: Inhibition of rat DYRK1A kinase domain (1 to 499 residues) expressed in bacteria using KKISGRLSPIMTEQ as substrate in presence of [gamma-33P]ATP
ENDPOINT NAME: IC50 (nM)

- ITEM SMILES: "CN1CCN(CCNc2ncc3cc4cnccc4c(N)c3n2)CC1"
  ENDPOINT NAME: "IC50"
  UNIT OF MEASUREMENT: "nM"
  RESULT: 120
- ITEM SMILES: "Nc1c2ccncc2cc2cnc(NCCCN3CCOCC3)nc12"
  ENDPOINT NAME: "IC50"
  UNIT OF MEASUREMENT: "nM"
  RESULT: 23
- ITEM SMILES: "CN1CCN(CCCNc2ncc3cc4cnccc4c(N)c3n2)CC1"
  ENDPOINT NAME: "IC50"
  UNIT OF MEASUREMENT: "nM"
  RESULT: 20
- ITEM SMILES: "Nc1c2ccncc2cc2cnc(NCCCN3CCCC3)nc12"
  ENDPOINT NAME: "IC50"
  UNIT OF MEASUREMENT: "nM"
  RESULT: 90
- ITEM SMILES: "CN(C)CCCNc1ncc2cc3cnccc3c(N)c2n1"
  ENDPOINT NAME: "IC50"
  UNIT OF MEASUREMENT: "nM"
  RESULT: 120
- ITEM SMILES: "CCN(CC)CCCNc1ncc2cc3cnccc3c(N)c2n1"
  ENDPOINT NAME: "IC50"
  UNIT OF MEASUREMENT: "nM"
  RESULT: 80

* * *

- TARGET: Glycogen synthase kinase-3 (Sus scrofa) (UniProt B2LUN4+I6LNT8)
- METHOD: Inhibition of porcine brain GSK-3alpha/beta assessed as residual activity at 1 uM using YRRAAVPPSPSLSRHSSPHQSpEDEEE as substrate in presence of [gamma-33P]ATP relative to control
- Assay type: tissue-based
- ASSAY CONTEXT: Sus scrofa domesticus
Threshold rule: Activity greater than or equal to 70% is Satisfied; below that, Not satisfied.

- ITEM SMILES: "Nc1c2ccncc2cc2cnc(NCCCN3CCCC3)nc12"
  TARGET: "Glycogen synthase kinase-3 (Sus scrofa) (UniProt B2LUN4+I6LNT8)"
  CLASS LABEL: "Not satisfied"
- ITEM SMILES: "CCN(CC)CCCNc1ncc2cc3cnccc3c(N)c2n1"
  TARGET: "Glycogen synthase kinase-3 (Sus scrofa) (UniProt B2LUN4+I6LNT8)"
  CLASS LABEL: "Not satisfied"
- ITEM SMILES: "O=[N+]([O-])c1c2ccncc2cc2cnc(NCCN3CCOCC3)nc12"
  TARGET: "Glycogen synthase kinase-3 (Sus scrofa) (UniProt B2LUN4+I6LNT8)"
  CLASS LABEL: "Satisfied"
- ITEM SMILES: "Nc1c2ccncc2cc2cnc(NCCCN3CCCCC3)nc12"
  TARGET: "Glycogen synthase kinase-3 (Sus scrofa) (UniProt B2LUN4+I6LNT8)"
  CLASS LABEL: "Not satisfied"
- ITEM SMILES: "CN(C)CCCNc1ncc2cc3cnccc3c([N+](=O)[O-])c2n1"
  TARGET: "Glycogen synthase kinase-3 (Sus scrofa) (UniProt B2LUN4+I6LNT8)"
  CLASS LABEL: "Satisfied"
- ITEM SMILES: "CCN(CC)CCNc1ncc2cc3cnccc3c(N)c2n1"
  TARGET: "Glycogen synthase kinase-3 (Sus scrofa) (UniProt B2LUN4+I6LNT8)"
  CLASS LABEL: "Satisfied"
- ITEM SMILES: "CN1CCN(CCNc2ncc3cc4cnccc4c(N)c3n2)CC1"
  TARGET: "Glycogen synthase kinase-3 (Sus scrofa) (UniProt B2LUN4+I6LNT8)"
  CLASS LABEL: "Not satisfied"
- ITEM SMILES: "CCN(CC)CCNc1ncc2cc3cnccc3c([N+](=O)[O-])c2n1"
  TARGET: "Glycogen synthase kinase-3 (Sus scrofa) (UniProt B2LUN4+I6LNT8)"
  CLASS LABEL: "Satisfied"

// provenance: ChEMBL document CHEMBL4665625
